Molecular target: vanilloid receptor (VR1) (Homo sapiens)
Construct: expressed in transfected cells; host or cells: CHO K1 cells (ECACC), stably transfected
Sequence (Q8NER1 whole entry): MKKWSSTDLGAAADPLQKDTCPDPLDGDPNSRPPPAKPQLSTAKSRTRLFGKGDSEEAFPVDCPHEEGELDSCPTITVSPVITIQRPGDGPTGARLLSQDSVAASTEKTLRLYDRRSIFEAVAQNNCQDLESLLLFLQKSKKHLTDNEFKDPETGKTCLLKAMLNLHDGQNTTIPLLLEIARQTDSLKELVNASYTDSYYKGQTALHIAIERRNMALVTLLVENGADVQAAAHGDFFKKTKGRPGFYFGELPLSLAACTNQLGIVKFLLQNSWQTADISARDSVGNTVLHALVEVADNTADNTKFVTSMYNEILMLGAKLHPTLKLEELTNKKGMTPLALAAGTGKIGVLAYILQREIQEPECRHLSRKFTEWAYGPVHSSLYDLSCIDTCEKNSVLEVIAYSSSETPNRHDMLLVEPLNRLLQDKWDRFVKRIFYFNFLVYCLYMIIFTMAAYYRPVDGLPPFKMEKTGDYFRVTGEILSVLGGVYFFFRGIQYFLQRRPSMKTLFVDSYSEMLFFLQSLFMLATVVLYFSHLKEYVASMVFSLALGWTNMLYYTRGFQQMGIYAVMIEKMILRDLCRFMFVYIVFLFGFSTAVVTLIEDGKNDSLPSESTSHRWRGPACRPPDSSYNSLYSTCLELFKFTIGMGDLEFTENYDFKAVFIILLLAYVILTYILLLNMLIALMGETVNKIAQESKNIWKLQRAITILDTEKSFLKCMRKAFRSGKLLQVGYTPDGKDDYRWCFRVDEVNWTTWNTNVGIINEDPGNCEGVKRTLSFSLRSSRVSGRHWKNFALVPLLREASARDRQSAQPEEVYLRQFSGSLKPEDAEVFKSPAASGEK
Assay: Functional testing on vanilloid receptor (VR1): FLIPR Ca2+ inflow assay in CHO K1 cells stably transfected with the VR1 gene
Type: cell-based
Conditions: CHO-K1, inhibition compared to 10 μM CP (capsaicin)
readout type: inhibition at 10 µM (%)

Reference set (4 entries):
Ask | Which inhibition at 10 µM is listed for CC(C)(C)c1ccc(/C=C/C(=O)N2CCC3(CC2)CC(c2cccc(F)c2)=NO3)cc1 [Compound 353] ?
Reply | 23

Ask | Any idea what its inhibition at 10 µM is? The compound is CC(C)c1ccc(NC(=O)N2CCC3(CC2)CC(c2ccc(C(C)(C)C)cc2)=NO3)cc1 [Compound 80]
Reply | 3.6

Ask | Any idea what its inhibition at 10 µM is? The compound is CC(C)(C)c1ccc(C(/C=C/c2ccccc2)=C/C(=O)N2CCC3(CC2)CC(c2cccc(F)c2)=NO3)cc1 [Compound 358]
Reply | 41

Ask | Which inhibition at 10 µM is reported for this compound? CC(C)(C)c1ccc(C2=NOC3(CCN(C(=O)Nc4ccc(I)cc4)CC3)C2)cc1 [Compound 45]
Reply | 0.17

[P] COc1cccc(C2=NOC3(CCN(C(=O)Nc4cc(C(F)(F)F)ccc4Cl)CC3)C2)c1 [Compound 221]
[Q] O=C(Nc1ccc(Br)cc1)N1CCC2(CC1)CC(c1ccccc1)=NO2 [Compound 197]
[R] CC(C)(C)c1ccc(/C(=C/C(=O)N2CCC3(CC2)CC(c2ccccc2F)=NO3)c2ccc(Cl)c(Cl)c2)cc1 [Compound 359]
[S] O=C(/C=C/c1ccc(C(F)(F)F)nc1N1CCCCC1)N1CCC2(CC1)CC(c1ccccc1)=NO2 [Compound 355]
Ask | // sort entries: inhibition at 10 µM, high to low Your answer should be the labels, listed in the requested order.
Reply | S, R, P, Q
(S: 63%, R: 26%, P: -11.6%, Q: -17.2%)

[P] Cc1ccc(C2=NOC3(CCN(C(=O)Nc4ccc(C(C)C)cc4)CC3)C2)cc1 [Compound 81]
[Q] COc1cccc(C2=NOC3(CCN(C(=O)Nc4ccc(C(C)(C)C)cc4)CC3)C2)c1 [Compound 140]
Ask | Could you tell me which of P and Q has the lower inhibition at 10 µM reading? Give the chosen item's label as your response.
Reply | P
(P: -2.79%, Q: 9.67%)

[a] COc1cccc(C2=NOC3(CCN(C(=S)Nc4ccc(C(C)(C)C)cc4)CC3)C2)c1 [Compound 278]
[b] O=C(C=Cc1ccc(C(F)(F)F)cc1)N1CCC2(CC1)CC(c1ccccc1)=NO2 [Compound 314]
[c] CC1CN(C(=O)/C=C/c2ccc(C(F)(F)F)nc2N2CCCCC2)CCC12CC(c1ccccc1)=NO2 (centres unmarked) [Compound 367]
[d] CCc1ccccc1NC(=O)N1CCC2(CC1)CC(c1cccc(OC)c1)=NO2 [Compound 156]
[e] O=C(Nc1ccc(C(F)(F)F)cc1)N1CCC2(CC1)CC(c1ccc(Cl)cc1)=NO2 [Compound 212]
Ask | Hey, can you sort those compounds up there by inhibition at 10 µM, smallest first? Your answer should be the labels, listed in the requested order.
Reply | e, d, b, a, c
(e: -16.1%, d: -7.89%, b: 6%, a: 28.1%, c: 93%)

[I] CC(C)(C)c1ccc(C2=NOC3(CCN(C(=O)Nc4ccc(Cl)cc4)CC3)C2)cc1 [Compound 42]
[II] Cc1ccc(C2=NOC3(CCN(C(=O)Nc4cc(C(F)(F)F)ccc4Cl)CC3)C2)cc1 [Compound 225]
[III] CC(C)(C)c1ccc(NC(=O)N2CCC3(CC2)CC(c2ncccc2Cl)=NO3)cc1 [Compound 329]
Ask | Your job: order these 3 records by inhibition at 10 µM, ascending. Response format: the labels, sorted as the prompt asks.
Reply | II, I, III
(II: -4.5%, I: 2.57%, III: 37%)

[a] COc1cccc(C2=NOC3(CCN(C(=O)Nc4cccc(SC)c4)CC3)C2)c1 [Compound 59]
[b] CC(C)(C)c1ccc(C(/C=C/c2ccccc2)=C/C(=O)N2CCC3(CC2)CC(c2ccccc2)=NO3)cc1 [Compound 337]
[c] COc1cccc(C2=NOC3(CCN(C(=O)Nc4ccc(SC)cc4)CC3)C2)c1 [Compound 65]
[d] COc1cccc(C2=NOC3(CCN(C(=O)Nc4ccc(C)cc4)CC3)C2)c1 [Compound 146]
[e] Cc1ccc(C2=NOC3(CCN(C(=O)Nc4ccc(C(C)(C)C)cc4)CC3)C2)cc1 [Compound 144]
Ask | Given 5 compounds, produce a descending ranking by inhibition at 10 µM. // ordering of labels required in reply
Reply | b, d, a, c, e
(b: 16%, d: 9.95%, a: 2.09%, c: -10.8%, e: -16.6%)

[A] COc1cc(C2=NOC3(CCN(C(=O)Nc4ccc(C(C)(C)C)cc4)CC3)C2)ccc1Cl [Compound 378]
[B] CSc1ccccc1NC(=O)N1CCC2(CC1)CC(c1ccc(C(C)(C)C)cc1)=NO2 [Compound 56]
[C] COc1ccccc1NC(=O)N1CCC2(CC1)CC(c1ccc(C(C)(C)C)cc1)=NO2 [Compound 201]
[D] CC(C)c1ccc(NC(=O)N2CCC3(CC2)CC(c2ccc(Cl)cc2)=NO3)cc1 [Compound 79]
Ask | Hey, quick one: sort these by inhibition at 10 µM, largest value first please. Provide your answer as the labels ordered per the instruction.
Reply | A, B, C, D

[1] CC(C)(C)c1ccc(NC(=O)N2CCC3(CC2)CC(c2ccc(C(C)(C)C)cc2)=NO3)cc1 [Compound 143]
[2] O=C(Nc1cccc(Br)c1)N1CCC2(CC1)CC(c1ccccc1)=NO2 [Compound 193]
[3] COc1cccc(C2=NOC3(CCN(C(=O)Nc4ccc(C(F)(F)F)cc4)CC3)C2)c1 [Compound 210]
[4] CCc1ccc(NC(=O)N2CCC3(CC2)CC(c2ccc(C(C)(C)C)cc2)=NO3)cc1 [Compound 165]
Ask | Order the records by inhibition at 10 µM, with each subsequent value no larger than the one before. Your reply should list the labels following the order given in the request.
Reply | 3, 4, 2, 1
(3: 7.12%, 4: 1.69%, 2: -2.64%, 1: -7.17%)
